# Test system: KM12 colon
# measurement description: NCI tumour cell line growth inhibition, 48 h

- molecule: "COc1ccc2c(c1)/C(=C\\c1c(C)nc3sc(C)cn13)C(=O)N2"
  measured on: "KM12 colon"
  TGI: "62.4 µM"
- molecule: "COC(=O)NC1(NC(=O)OC)NC(=O)c2cc(OC)c(OC)c(OC)c2N1"
  measured on: "KM12 colon"
  TGI: "> 100 µM"
- molecule: "Cc1ccc(N=N/C(=N/NC(=O)c2cc(Cl)ccc2C(=O)c2ccccc2)c2ccc(N(CCC#N)CCC#N)cc2C)cc1"
  measured on: "KM12 colon"
  TGI: "> 100 µM"
- molecule: "O=C(O)CNc1ccc(C(=O)O)cc1"
  measured on: "KM12 colon"
  TGI: "> 100 µM"
- molecule: "O=C(NNC(c1ccccc1)C(F)(F)F)c1ccncc1 (centres undefined)"
  measured on: "KM12 colon"
  TGI: "> 100 µM"
- molecule: "O=C(O)c1cc2ccccc2c(N=Nc2cc(C(F)(F)F)ccc2Cl)c1O"
  measured on: "KM12 colon"
  TGI: "> 100 µM"
- molecule: "Brc1c(C#CCC(c2ccccc2)(c2ccccc2)c2ccccc2)ccc(C#CCC(c2ccccc2)(c2ccccc2)c2ccccc2)c1Br"
  measured on: "KM12 colon"
  TGI: "> 100 µM"
- molecule: "COc1ccc(/C=C2\\CC(C)CC3C2=NN(C(C)=O)C3c2ccc(OC)cc2)cc1 (centres undefined)"
  measured on: "KM12 colon"
  TGI: "46.5 µM"
- molecule: "O=[N+]([O-])c1ccccc1NC1c2ccccc2Oc2ccccc21"
  measured on: "KM12 colon"
  TGI: "> 100 µM"
- molecule: "C/C=C\\C(CC(=O)NCCC1CN(S(=O)(=O)C(F)(F)F)c2ccccc21)CC(=O)OC (centres undefined)"
  measured on: "KM12 colon"
  TGI: "> 100 µM"
- molecule: "Nc1ncc(Cl)c(NCC2(CO)CC(CCc3ccccc3)C2)n1 (centres undefined)"
  measured on: "KM12 colon"
  TGI: "> 100 µM"
- molecule: "COc1ccc(C(=O)C(c2ccc(OC)cc2)C2OC(=O)C(Cl)=C2Cl)cc1 (centres undefined)"
  measured on: "KM12 colon"
  TGI: "> 100 µM"
- molecule: "COC(=O)CCC(=O)Nc1cc(Cl)ccc1Cl"
  measured on: "KM12 colon"
  TGI: "> 100 µM"
- molecule: "CCCCOC(=O)NC(Nc1cccc(C(F)(F)F)c1)(C(F)(F)F)C(F)(F)F"
  measured on: "KM12 colon"
  TGI: "> 100 µM"
- molecule: "Cc1cc(C)c2c(c1)CC1(Cc3c(C)ccc(C)c3C1=O)C2=O (centres undefined)"
  measured on: "KM12 colon"
  TGI: "> 100 µM"
- molecule: "CC(=O)C1C(=O)NC(=O)C1=O (centres undefined)"
  measured on: "KM12 colon"
  TGI: "> 100 µM"
- molecule: "CC1(C)CC23CC(C)(C)c4cccc(c42)OCc2ccc4ccc5ccc(nc5c4n2)COc2cccc1c23"
  measured on: "KM12 colon"
  TGI: "> 50 µM"
- molecule: "CCOC(=O)Cc1csc2[n+]1C(=O)/C(=C\\c1cccc(Cl)c1Cl)S2"
  measured on: "KM12 colon"
  TGI: "33.5 µM"
- molecule: "CCN(CC)CCCn1c(=O)c2ccccc2n2c3c(=O)n(C)c(=O)n(C)c3nc12"
  measured on: "KM12 colon"
  TGI: "19.8 µM"
- molecule: "O/N=C1/C(=C/c2ccc(Oc3ccccc3)cc2)CCCC1C(NO)c1ccc(Oc2ccccc2)cc1 (centres undefined)"
  measured on: "KM12 colon"
  TGI: "> 100 µM"
- molecule: "O=C(O)c1cc2ccccc2oc1=O"
  measured on: "KM12 colon"
  TGI: "> 100 µM"
- molecule: "NC(=O)c1coc(C2OC(CO)C(O)C2O)n1 (centres undefined)"
  measured on: "KM12 colon"
  TGI: "> 100 µM"
- molecule: "Cc1c2c(n(CCc3ccccc3)c1C)N(C)N=C(C#N)S2(=O)=O"
  measured on: "KM12 colon"
  TGI: "> 100 µM"
- molecule: "CN1CCN(c2ccc(Nc3nc(N)c(C(=O)c4ccc5c(c4)OCCO5)s3)cc2)CC1"
  measured on: "KM12 colon"
  TGI: "16.1 µM"
